- System: Human immunodeficiency virus type 1 reverse transcriptase (Human immunodeficiency virus 1), Q72547 [L100I]
As shown below, each of these compounds has a reported ID50 value.
measurement.kind: ID50 (nM)

>  <compound>
CCC(C)Sc1nc(O)c(C)c(C(C)c2c(F)cccc2F)n1 (racemic)

>  <recorded.number>
670

$$$$
>  <compound>
CCCSc1nc(C(CC)c2c(F)cccc2F)c(C)c(=O)[nH]1 (racemic)

>  <recorded.number>
220

$$$$
>  <compound>
Cc1c(C(C)c2c(F)cccc2Cl)nc(SC2CCCC2)[nH]c1=O (racemic)

>  <recorded.number>
120

$$$$
>  <compound>
CCCCSc1nc(C(C)c2c(F)cccc2Cl)c(CC)c(=O)[nH]1 (racemic)

>  <recorded.number>
330

$$$$
>  <compound>
CCCSc1nc(C(C)c2c(F)cccc2F)c(C)c(=O)[nH]1 (racemic)

>  <recorded.number>
230

$$$$
>  <compound>
CCC(C)Sc1nc(C(CC)c2c(F)cccc2Cl)c(C)c(=O)[nH]1 (racemic)

>  <recorded.number>
120

$$$$
>  <compound>
CCCCSc1nc(O)c(C)c(C(C)c2c(F)cccc2F)n1 (racemic)

>  <recorded.number>
230

$$$$
>  <compound>
CCc1c(C(C)c2c(F)cccc2Cl)nc(SC(C)CC)[nH]c1=O (racemic)

>  <recorded.number>
400

$$$$
>  <compound>
CCc1c(C(C)c2c(F)cccc2Cl)nc(SC2CCCC2)[nH]c1=O (racemic)

>  <recorded.number>
530

$$$$
>  <compound>
CCC(c1nc(SC(C)C)[nH]c(=O)c1C)c1c(F)cccc1Cl (racemic)

>  <recorded.number>
120

$$$$
>  <compound>
CCc1c(C(C)c2c(F)cccc2F)nc(SC2CCCC2)[nH]c1=O (racemic)

>  <recorded.number>
130

$$$$
>  <compound>
CCCSc1nc(C(C)c2c(F)cccc2Cl)c(CC)c(=O)[nH]1 (racemic)

>  <recorded.number>
230

$$$$

###

- test.target: Human immunodeficiency virus type 1 reverse transcriptase (Human immunodeficiency virus 1) (UniProt Q72547)
measurement.kind: log10(ID50) (log10 of the value in nM)

>  <compound>
CCCSc1nc(C(C)c2c(F)cccc2Cl)c(CC)c(=O)[nH]1 (racemic)

>  <measurement.kind>
log10(ID50)

>  <recorded.number>
1.00

$$$$
>  <compound>
CCCCSc1nc(O)c(C)c(C(C)c2c(F)cccc2F)n1 (racemic)

>  <measurement.kind>
log10(ID50)

>  <recorded.number>
0.48

$$$$
>  <compound>
CCCCSc1nc(C(C)c2c(F)cccc2Cl)c(C)c(=O)[nH]1 (racemic)

>  <measurement.kind>
log10(ID50)

>  <recorded.number>
0.48

$$$$
>  <compound>
CCCSc1nc(C(C)c2c(F)cccc2F)c(C)c(=O)[nH]1 (racemic)

>  <measurement.kind>
log10(ID50)

>  <recorded.number>
0.00

$$$$
>  <compound>
CCC(C)Sc1nc(C(CC)c2c(F)cccc2F)c(C)c(=O)[nH]1 (racemic)

>  <measurement.kind>
log10(ID50)

>  <recorded.number>
0.78

$$$$
>  <compound>
CCCSc1nc(C(C)c2c(F)cccc2Cl)cc(=O)[nH]1 (racemic)

>  <measurement.kind>
log10(ID50)

>  <recorded.number>
0.90

$$$$
>  <compound>
CCCCSc1nc(C(CC)c2c(F)cccc2F)c(C)c(=O)[nH]1 (racemic)

>  <measurement.kind>
log10(ID50)

>  <recorded.number>
0.48

$$$$
>  <compound>
Cc1c(C(C)c2c(F)cccc2F)nc(SC2CCCC2)[nH]c1=O (racemic)

>  <measurement.kind>
log10(ID50)

>  <recorded.number>
0.70

$$$$
>  <compound>
CCCSc1nc(C(CC)c2c(F)cccc2Cl)c(C)c(=O)[nH]1 (racemic)

>  <measurement.kind>
log10(ID50)

>  <recorded.number>
0.70

$$$$
>  <compound>
CCc1c(C(C)c2c(F)cccc2F)nc(SC2CCCC2)[nH]c1=O (racemic)

>  <measurement.kind>
log10(ID50)

>  <recorded.number>
0.30

$$$$
>  <compound>
CCCSc1nc(C(CC)c2c(F)cccc2F)c(C)c(=O)[nH]1 (racemic)

>  <measurement.kind>
log10(ID50)

>  <recorded.number>
0.78

$$$$
>  <compound>
CCc1c(C(C)c2c(F)cccc2Cl)nc(SC2CCCC2)[nH]c1=O (racemic)

>  <measurement.kind>
log10(ID50)

>  <recorded.number>
1.38

$$$$
>  <compound>
Cc1c(O)nc(SC(C)C)nc1C(C)c1c(F)cccc1F (racemic)

>  <measurement.kind>
log10(ID50)

>  <recorded.number>
0.48

$$$$
>  <compound>
CCC(C)Sc1nc(O)c(C)c(C(C)c2c(F)cccc2F)n1 (racemic)

>  <measurement.kind>
log10(ID50)

>  <recorded.number>
1.49

$$$$
>  <compound>
CCC(c1nc(SC2CCCC2)[nH]c(=O)c1C)c1c(F)cccc1F (racemic)

>  <measurement.kind>
log10(ID50)

>  <recorded.number>
0.70

$$$$
>  <compound>
CC(C)Sc1nc(C(C)c2c(F)cccc2Cl)cc(=O)[nH]1 (racemic)

>  <measurement.kind>
log10(ID50)

>  <recorded.number>
0.90

$$$$
>  <compound>
CCCSc1nc(C(C)c2c(F)cccc2Cl)c(C)c(=O)[nH]1 (racemic)

>  <measurement.kind>
log10(ID50)

>  <recorded.number>
-0.05

$$$$
>  <compound>
CCC(c1nc(SC2CCCC2)[nH]c(=O)c1C)c1c(F)cccc1Cl (racemic)

>  <measurement.kind>
log10(ID50)

>  <recorded.number>
0.60

$$$$
>  <compound>
CCc1c(C(C)c2c(F)cccc2Cl)nc(SC(C)CC)[nH]c1=O (racemic)

>  <measurement.kind>
log10(ID50)

>  <recorded.number>
0.90

$$$$
>  <compound>
CCC(C)Sc1nc(C(CC)c2c(F)cccc2Cl)c(C)c(=O)[nH]1 (racemic)

>  <measurement.kind>
log10(ID50)

>  <recorded.number>
0.30

$$$$
>  <compound>
CCC(c1nc(SC(C)C)[nH]c(=O)c1C)c1c(F)cccc1F (racemic)

>  <measurement.kind>
log10(ID50)

>  <recorded.number>
0.60

$$$$
>  <compound>
Cc1c(C(C)c2c(F)cccc2Cl)nc(SC2CCCC2)[nH]c1=O (racemic)

>  <measurement.kind>
log10(ID50)

>  <recorded.number>
1.04

$$$$
